System: Bifidobacterium longum subsp. longum
method-description: growth AUC relative to DMSO control (median of replicates) (fraction); higher = more growth (less inhibition), active = hit call of the paper;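 active = AUC reduced over 20% with Padj below 0.05 in at least 2 of 3 replicates; inactive = otherwise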
test-parameters: 20 µM; 24 h
Give your call using only these classes: Y (active), N (inactive)

compound	label-class
CC(C)C1(C)N=C(c2nc3ccccc3cc2C(=O)O)NC1=O (stereo not given)	N
CCNc1nc(NC(C)C(C)C)nc(SC)n1 (stereo not given)	N
CCOC(=O)CCN(SN(C)C(=O)Oc1cccc2c1OC(C)(C)C2)C(C)C	N
CC(C)(C)N(NC(=O)c1ccc(Cl)cc1)C(=O)c1ccccc1	N
CC(C)N1C(=O)N(c2ccccc2)CSC1=NC(C)(C)C	N

What call does the record list for CNC(=S)S ?
N

What call does the record list for CC(COc1ccc(Oc2ccccc2)cc1)Oc1ccccn1 (stereo not given) ?
N

What call does the record list for COC(=O)C(C)Oc1ccc(Oc2ccc(Cl)cc2Cl)cc1 (stereo not given) ?
N

What call does the record list for [Cl][Sn]([c]1ccccc1)([c]1ccccc1)[c]1ccccc1 ?
Y

What call does the record list for C=C(C)CN(CC)c1c([N+](=O)[O-])cc(C(F)(F)F)cc1[N+](=O)[O-] ?
N

What call does the record list for O=[N+]([O-])NC1=NCOCN1Cc1cnc(Cl)s1 ?
N
